# Tested on: CYP1A
# Procedure details: Liver microsomal CYP1A enzymatic activity, inhibition or enhancement
# Stated conditions: nude, mouse, liver microsomes, pH 7.8, probe 7-ethoxyresorufin
Observed property: activity at 10 min, 10 µM (%)

Solved cases (2 shown):
CC12CCC(CC1)C(C)(C)O2	99.9
C[C@@H]1O[C@@H](Oc2c(-c3ccc(O)c(O)c3)oc3cc(O)cc(O)c3c2=O)[C@H](O)[C@H](O)[C@H]1O	104

a = COc1ccc(-c2cc(=O)c3c(O)cc(O[C@@H]4O[C@H](CO[C@@H]5O[C@@H](C)[C@H](O)[C@@H](O)[C@H]5O)[C@@H](O)[C@H](O)[C@H]4O)cc3o2)cc1O
b = CC(=O)OCCCc1ccccc1 [3-Phenyl propyl acetate, 3-phenylpropyl acetate]
Of the two listed items, which has the higher activity at 10 min, 10 µM? First: a Second: b Indicate your choice by writing its label.
b
(b: 143%, a: 97.3%)

* * *

# Tested on: CYP1A
# Procedure details: in vitro
# Stated conditions: nude, mouse, pH 7.8
Observed property: activity at 10 min, 10 µM (%)
Numeric answer only, unit % assumed.

Lookup: activity at 10 min, 10 µM / CYP1A / O=C(O)/C=C/c1ccccc1 [Trans-cinnamic acid]
103

* * *

# Test system: CYP1A
# Procedure details: Liver microsomal CYP1A enzymatic activity, inhibition or enhancement
# Stated conditions: nude, mouse, liver microsomes, pH 7.8, probe 7-ethoxyresorufin
Observed property: activity at 10 min, 100 µM (%)

C=CC(=C)CCC=C(C)C [Beta-Myrcene]	100
O=c1c(-c2ccc(O)cc2)coc2cc(O)ccc12 [Daidzein]	135
CC1(C)[C@@H](O[C@H]2O[C@H](C(=O)O)[C@@H](O)[C@H](O)[C@H]2O[C@@H]2O[C@H](C(=O)O)[C@@H](O)[C@H](O)[C@H]2O)CC[C@]2(C)[C@H]3C(=O)C=C4[C@@H]5C[C@@](C)(C(=O)O)CC[C@]5(C)CC[C@@]4(C)[C@]3(C)CC[C@@H]12 [Glycyrrihizin, Glycyrrhizin]	89.1

* * *

# System: CYP1A
# Procedure details: in vitro
# Stated conditions: nude, mouse, pH 7.8, inhibition of dermal CYP1A activity
# Description: Nude mice were sacrificed by decapitation. The precipitate containing the microsomes was obtained.
Observed property: inhibition at 10 min, 100 µM

Solved cases (5 shown):
O=c1c(O)c(-c2ccc(O)cc2)oc2cc(O)cc(O)c12	> 90%
C[C@@H]1O[C@@H](OC[C@H]2O[C@@H](Oc3c(-c4ccc(O)c(O)c4)oc4cc(O)cc(O)c4c3=O)[C@H](O)[C@@H](O)[C@@H]2O)[C@H](O)[C@H](O)[C@H]1O	~41%
O=c1c(O[C@@H]2O[C@H](CO)[C@@H](O)[C@H](O)[C@H]2O)c(-c2ccc(O)c(O)c2)oc2cc(O)cc(O)c12	~56%
O=C(O)c1cc(O)c(O)c(O)c1	~12%
O=c1cc(-c2ccc(O)c(O)c2)oc2cc(O)cc(O)c12	~90%

Lookup: inhibition at 10 min, 100 µM / CYP1A / CC12CCC(CC1)C(C)(C)O2
~5%

Lookup: inhibition at 10 min, 100 µM / CYP1A / O=C(O)/C=C/c1ccccc1 [Trans-cinnamic acid]
~13%

Lookup: inhibition at 10 min, 100 µM / CYP1A / O=c1cc(-c2ccc(O)cc2)oc2cc(O)cc(O)c12
~24%
